tested-target: UniProt:P51531
Sequence (P51531 whole entry): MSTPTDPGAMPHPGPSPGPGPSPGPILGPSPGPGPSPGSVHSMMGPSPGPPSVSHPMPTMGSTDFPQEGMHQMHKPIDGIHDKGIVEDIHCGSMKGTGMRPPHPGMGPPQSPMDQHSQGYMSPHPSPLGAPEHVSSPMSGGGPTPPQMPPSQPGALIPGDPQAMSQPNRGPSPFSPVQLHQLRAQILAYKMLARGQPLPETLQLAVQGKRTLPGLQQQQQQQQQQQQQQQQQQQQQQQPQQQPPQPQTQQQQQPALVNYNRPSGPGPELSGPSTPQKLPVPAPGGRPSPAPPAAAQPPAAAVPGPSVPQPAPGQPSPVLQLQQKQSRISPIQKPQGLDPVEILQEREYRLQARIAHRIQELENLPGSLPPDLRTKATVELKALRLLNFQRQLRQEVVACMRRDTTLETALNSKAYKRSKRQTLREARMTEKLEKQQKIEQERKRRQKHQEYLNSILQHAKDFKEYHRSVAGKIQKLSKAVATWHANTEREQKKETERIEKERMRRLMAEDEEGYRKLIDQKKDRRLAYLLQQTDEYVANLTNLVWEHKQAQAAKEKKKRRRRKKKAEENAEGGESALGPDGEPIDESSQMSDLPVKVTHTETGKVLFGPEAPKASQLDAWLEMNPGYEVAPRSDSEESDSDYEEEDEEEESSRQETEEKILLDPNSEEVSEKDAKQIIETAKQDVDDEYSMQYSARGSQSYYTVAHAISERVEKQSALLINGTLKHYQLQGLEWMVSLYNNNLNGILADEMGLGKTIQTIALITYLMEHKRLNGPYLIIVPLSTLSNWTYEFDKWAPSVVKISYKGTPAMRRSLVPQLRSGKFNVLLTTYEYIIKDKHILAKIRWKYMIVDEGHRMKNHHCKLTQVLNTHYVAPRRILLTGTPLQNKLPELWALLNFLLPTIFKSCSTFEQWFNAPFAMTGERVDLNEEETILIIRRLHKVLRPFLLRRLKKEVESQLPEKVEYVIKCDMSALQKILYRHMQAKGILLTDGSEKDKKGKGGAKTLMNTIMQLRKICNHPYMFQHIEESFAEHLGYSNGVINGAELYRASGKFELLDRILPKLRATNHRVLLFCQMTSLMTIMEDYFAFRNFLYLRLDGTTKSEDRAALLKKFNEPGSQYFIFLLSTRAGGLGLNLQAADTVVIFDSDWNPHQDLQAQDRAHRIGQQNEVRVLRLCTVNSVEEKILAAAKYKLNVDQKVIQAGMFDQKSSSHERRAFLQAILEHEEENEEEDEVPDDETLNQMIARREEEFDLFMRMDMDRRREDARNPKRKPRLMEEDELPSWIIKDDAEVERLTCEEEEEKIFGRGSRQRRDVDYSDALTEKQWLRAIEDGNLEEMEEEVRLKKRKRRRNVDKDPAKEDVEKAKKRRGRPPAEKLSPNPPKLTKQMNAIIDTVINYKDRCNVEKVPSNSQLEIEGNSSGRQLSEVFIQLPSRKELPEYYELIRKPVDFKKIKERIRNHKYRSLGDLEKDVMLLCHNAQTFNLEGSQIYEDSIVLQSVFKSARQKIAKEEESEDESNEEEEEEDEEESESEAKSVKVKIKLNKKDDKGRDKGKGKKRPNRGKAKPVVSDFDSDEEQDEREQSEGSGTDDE
protocol: SMARCA2 HiBiT degradation assay in HEK293T cells
Type: cell-based
test-conditions: 293T HiBiT assay, 24 h; read-out: DC50 (SM2-293T) SMARCA2 degradation potency
DC50 values for the compounds below.

compound="Cc1ncsc1-c1ccc([C@H](C)NC(=O)[C@@H]2C[C@@H](O)CN2C(=O)[C@@H](c2cc(CCCN3CCN4c5cc(-c6ccccc6O)nnc5NCC4C3)no2)C(C)C)cc1 (stereo partly drawn)" readout_type=DC50 result_value="< 100 nM"
compound="Cc1ncsc1-c1ccc([C@H](C)NC(=O)[C@@H]2C[C@@H](O)CN2C(=O)C(c2cc(COC(=O)N3CCC(N4CCN5c6cc(-c7ccccc7O)nnc6NC[C@H]5C4)CC3)no2)C(C)C)cc1 (stereo partly drawn)" readout_type=DC50 result_value="< 100 nM"

// assay UniProt:P51531, entry Cc1ncsc1-c1ccc([C@H](C)NC(=O)[C@@H]2C[C@@H](O)CN2C(=O)[C@@H](NC(=O)CN2CCC(N3CCN4c5cc(-c6ccccc6O)nnc5NC[C@H]4C3)CC2)C(C)(C)C)cc1 , DC50 value = < 100 nM

* * *

tested-target: SMARCA4 (Homo sapiens (Human), UniProt P51532)
Sequence (P51532 whole entry): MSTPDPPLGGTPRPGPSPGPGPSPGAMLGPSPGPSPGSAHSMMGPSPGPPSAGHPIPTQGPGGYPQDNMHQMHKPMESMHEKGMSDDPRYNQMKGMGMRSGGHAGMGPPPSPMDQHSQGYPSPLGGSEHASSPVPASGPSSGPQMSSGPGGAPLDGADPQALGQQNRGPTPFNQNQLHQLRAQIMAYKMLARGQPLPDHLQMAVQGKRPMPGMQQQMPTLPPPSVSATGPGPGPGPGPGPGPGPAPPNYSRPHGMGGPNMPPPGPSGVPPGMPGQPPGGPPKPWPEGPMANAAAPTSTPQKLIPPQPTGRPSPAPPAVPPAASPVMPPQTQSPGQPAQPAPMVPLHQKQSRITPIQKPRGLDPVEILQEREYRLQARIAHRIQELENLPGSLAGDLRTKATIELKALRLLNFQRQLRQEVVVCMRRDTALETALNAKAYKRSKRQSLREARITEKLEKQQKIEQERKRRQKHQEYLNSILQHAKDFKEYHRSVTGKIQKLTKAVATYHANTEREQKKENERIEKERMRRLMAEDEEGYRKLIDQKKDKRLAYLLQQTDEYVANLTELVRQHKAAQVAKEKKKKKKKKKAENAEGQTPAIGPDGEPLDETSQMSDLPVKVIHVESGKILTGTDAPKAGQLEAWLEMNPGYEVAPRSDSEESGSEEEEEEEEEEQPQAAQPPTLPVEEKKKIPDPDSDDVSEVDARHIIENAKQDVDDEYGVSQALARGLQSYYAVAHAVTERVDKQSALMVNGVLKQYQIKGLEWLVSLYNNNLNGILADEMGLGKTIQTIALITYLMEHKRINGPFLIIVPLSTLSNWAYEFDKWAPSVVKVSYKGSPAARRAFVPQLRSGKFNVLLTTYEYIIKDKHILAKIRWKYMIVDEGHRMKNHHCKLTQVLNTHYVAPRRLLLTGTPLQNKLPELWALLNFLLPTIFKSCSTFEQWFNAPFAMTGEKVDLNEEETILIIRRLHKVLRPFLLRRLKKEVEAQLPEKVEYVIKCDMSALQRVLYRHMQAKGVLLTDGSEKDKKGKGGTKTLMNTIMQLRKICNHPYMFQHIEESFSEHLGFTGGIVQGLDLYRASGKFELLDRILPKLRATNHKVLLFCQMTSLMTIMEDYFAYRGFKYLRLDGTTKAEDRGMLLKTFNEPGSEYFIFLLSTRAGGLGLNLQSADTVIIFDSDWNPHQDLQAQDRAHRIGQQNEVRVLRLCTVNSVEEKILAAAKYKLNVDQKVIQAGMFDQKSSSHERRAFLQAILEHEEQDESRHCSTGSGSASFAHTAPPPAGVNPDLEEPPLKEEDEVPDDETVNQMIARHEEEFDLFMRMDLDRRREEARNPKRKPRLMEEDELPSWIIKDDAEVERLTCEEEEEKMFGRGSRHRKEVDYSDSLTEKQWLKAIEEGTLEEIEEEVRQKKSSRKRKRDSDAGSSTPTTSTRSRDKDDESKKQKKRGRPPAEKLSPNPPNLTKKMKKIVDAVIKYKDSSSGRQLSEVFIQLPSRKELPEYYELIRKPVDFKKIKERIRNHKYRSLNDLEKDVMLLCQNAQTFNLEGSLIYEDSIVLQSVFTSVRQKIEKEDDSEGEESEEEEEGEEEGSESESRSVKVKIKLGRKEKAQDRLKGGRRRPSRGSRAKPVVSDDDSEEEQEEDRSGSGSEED
protocol: SMARCA4 HiBiT degradation assay in HeLa cells
Assay type: cell-based
test-conditions: 18 hours, read-out: DC50 (SM4-HeLa) SMARCA4 degradation potency
readout-type: DC50

Guide cases for DC50, answers given:
molecule="Cc1ncsc1-c1ccc([C@H](C)NC(=O)[C@@H]2C[C@@H](O)CN2C(=O)[C@@H](c2cc(OCCN3CCC(C(=O)N4CCN5c6cc(-c7ccccc7O)nnc6NC[C@H]5C4)CC3)no2)C(C)C)cc1 [Example 98]" readout_type=DC50 result_value="< 100 nM"
molecule="Cc1ncsc1-c1ccc([C@H](C)NC(=O)[C@@H]2C[C@@H](O)CN2C(=O)[C@@H](c2cc(O[C@H](C)CN3CCC(N4CCN5c6cc(-c7ccccc7O)nnc6NC[C@H]5C4)C3)no2)C(C)C)cc1 (single isomer, unassigned) [Example 50]" readout_type=DC50 result_value="< 100 nM"
molecule="Cc1ncsc1-c1ccc([C@H](C)NC(=O)[C@@H]2C[C@@H](O)CN2C(=O)[C@@H](c2cc(OCCN3CCC(CN4C[C@@H]5CNc6nnc(-c7ccccc7O)cc6N5C[C@@H]4C)CC3)no2)C(C)C)cc1 [Example 101]" readout_type=DC50 result_value="< 100 nM"

For the molecule Cc1ncsc1-c1ccc([C@H](C)NC(=O)[C@@H]2C[C@@H](O)CN2C(=O)[C@@H](c2cc(OCCN3CCC(N(C)C4CCN5c6cc(-c7ccccc7O)nnc6NCC5C4)CC3)no2)C(C)C)cc1 (stereo partly drawn) [Example 99] , the measured DC50 on SMARCA4 (Homo sapiens (Human), UniProt P51532) was < 100 nM

Measured DC50 (SMARCA4 (Homo sapiens (Human), UniProt P51532)), entry Cc1ncsc1-c1ccc([C@H](C)NC(=O)[C@@H]2C[C@@H](O)CN2C(=O)C(c2cc(O[C@H](C)C(=O)N3CCC(N4CCN5c6cc(-c7ccccc7O)nnc6NC[C@H]5C4)C3)no2)C(C)C)cc1 (stereo partly drawn) [Example 29] : 100 to 1000 nM

Here Cc1ncsc1-c1ccc([C@H](C)NC(=O)[C@@H]2C[C@@H](O)CN2C(=O)C(c2cc(CCN(C)CCN3CCN4c5cc(-c6ccccc6O)nnc5NC[C@H]4C3)no2)C(C)C)cc1 (stereo partly drawn) [Example 34] was tested on SMARCA4 (Homo sapiens (Human), UniProt P51532), and its DC50 came to ≥ 10000 nM

SMARCA4 (Homo sapiens (Human), UniProt P51532) DC50 of Cc1ncsc1-c1ccc([C@H](C)NC(=O)[C@@H]2C[C@@H](O)CN2C(=O)[C@@H](c2cc(O[C@@H](C)CN3CCC(N4CCN5c6cc(-c7ccccc7O)nnc6NC[C@H]5C4)C3)no2)C(C)C)cc1 (stereo partly drawn) [Example 48] is < 100 nM

With SMARCA4 (Homo sapiens (Human), UniProt P51532) as the test system, Cc1ncsc1-c1ccc([C@H](CO)NC(=O)[C@@H]2C[C@@H](O)CN2C(=O)C(c2cc(OCCN3CCC(CN4CCN5c6cc(-c7ccccc7O)nnc6NC[C@H]5C4)CC3)no2)C(C)C)cc1 (stereo partly drawn) [Example 46] showed DC50 of 100 to 1000 nM

Lab note: molecule Cc1ncsc1-c1ccc([C@H](C)NC(=O)[C@@H]2C[C@@H](O)CN2C(=O)[C@@H](c2cc(OC(C)CN3CCCC(CN4CCN5c6cc(-c7ccccc7O)nnc6NC[C@H]5C4)CC3)no2)C(C)C)cc1 (stereo partly drawn) [Example 68] tested on SMARCA4 (Homo sapiens (Human), UniProt P51532); recorded DC50 was 100 to 1000 nM
